All values here come from patent US9718817B2.

system_tested: GST-tagged ROR gamma ligand binding domain (LBD) (Homo sapiens, UniProt P51449)
Construct: purchased Invitrogen
Sequence (P51449 269-508 limits assumed): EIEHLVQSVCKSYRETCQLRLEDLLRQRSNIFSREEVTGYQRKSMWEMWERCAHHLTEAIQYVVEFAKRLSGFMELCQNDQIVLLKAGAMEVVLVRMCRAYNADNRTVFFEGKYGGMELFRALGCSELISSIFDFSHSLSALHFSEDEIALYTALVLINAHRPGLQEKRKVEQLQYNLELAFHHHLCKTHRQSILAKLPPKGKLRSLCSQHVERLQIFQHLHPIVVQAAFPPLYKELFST
measurement_protocol: TR-FRET assay for ROR gamma (LanthaScreen co-activator peptide recruitment)
Assay type: biochemical
condition_set: compound 10 μM; TR-FRET ratio 520/495, percent of control
observable: inhibition at 10 µM (%)
Report only the number, with the unit % understood.

Recorded results for 4 compounds are shown here.
compound: CCn1c(C(C)(C)Oc2ccc(F)c(F)c2F)nc2cc(NC(=O)Cc3ccc(S(=O)(=O)CC)cc3)ccc21 [Example 91]
val: 90.6
//
compound: CCn1c(C(C)(C)Oc2ccc(NC(=O)Cc3ccc(S(=O)(=O)CC)cc3)cc2)nc2ccc(Cl)cc21 [Example 17]
val: 94.3
//
compound: CCS(=O)(=O)c1ccc(CC(=O)Nc2ccc(OC3(c4ccc(Cl)c(F)c4)CCC3)nc2)cc1 [Example 54]
val: 93.7
//
compound: CCS(=O)(=O)c1ccc(CC(=O)Nc2ccc(OC3(c4ccc(Cl)c(F)c4)CCCC3)c(F)c2)cc1 [Example 121]
val: 90.2

Report inhibition at 10 µM for CCS(=O)(=O)c1ccc(CC(=O)Nc2ccc(OC(C)(C)Cn3c(C)cc4cc(F)ccc43)c(F)c2)cc1 [Example 108] please. 61.4

Please answer likewise for CCS(=O)(=O)c1ccc(CC(=O)Nc2ccc(OC3(c4ccc(Cl)c(Cl)c4)CC3)cc2)cc1 [Example 49] 80

Next up: CCn1c(C(C)(C)Oc2ccc(Cl)cn2)nc2cc(NC(=O)Cc3ccc(S(=O)(=O)CC)cc3)ccc21 [Example 94] 90.1

---

system_tested: GST-tagged ROR gamma ligand binding domain (LBD) (Homo sapiens, UniProt P51449)
Construct: purchased Invitrogen
Sequence (P51449 269-508 limits assumed): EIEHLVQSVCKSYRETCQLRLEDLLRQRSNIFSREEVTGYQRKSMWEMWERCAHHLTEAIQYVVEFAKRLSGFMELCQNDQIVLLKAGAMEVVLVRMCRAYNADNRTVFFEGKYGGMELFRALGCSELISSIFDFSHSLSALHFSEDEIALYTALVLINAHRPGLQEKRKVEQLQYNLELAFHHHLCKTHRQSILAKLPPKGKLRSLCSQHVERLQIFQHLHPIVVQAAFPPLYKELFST
measurement_protocol: TR-FRET assay for ROR gamma (LanthaScreen co-activator peptide recruitment)
Assay type: biochemical
condition_set: compound 10 μM; TR-FRET ratio 520/495, percent of control
observable: inhibition at 10 µM (%)
# output: bare number, implied unit %

Below, each entry is followed by its recorded inhibition at 10 µM result.
smiles: CCS(=O)(=O)c1ccc(CC(=O)Nc2ccc(OC3(c4ccc(Cl)cc4F)CC3)cc2)cc1
val: 87.7
//
smiles: CCS(=O)(=O)c1ccc(CC(=O)Nc2ccc(OC(C)(C)c3ccc(F)cc3Cl)c(F)c2)cc1
val: 82.1
//
smiles: CCS(=O)(=O)c1ccc(CC(=O)Nc2ccc(OC3(c4ccc(Cl)c(F)c4)CC3)cc2)cc1
val: 87.9
//
smiles: CCn1c(C(C)(C)Oc2ccc(NC(=O)Cc3ccc(S(=O)(=O)CC)cc3)cc2)nc2ccc(F)cc21
val: 93.3
//
smiles: CCS(=O)(=O)c1ccc(CC(=O)Nc2ccc(OC3(c4ccc(Cl)cc4Cl)CCCCC3)cc2)cc1
val: 81.1

Dear colleague, I am looking for the recorded inhibition at 10 µM of the following compound: `CCS(=O)(=O)c1ccc(CC(=O)Nc2ccc(OC3(c4ccc(Cl)c(F)c4)CCOCC3)cc2)cc1` 87.8

// next record `CCS(=O)(=O)c1ccc(CC(=O)Nc2ccc(OC3(c4ccc(Cl)c(F)c4)CCCC3)cc2)cc1` 89.6

Next up: `CCS(=O)(=O)c1ccc(CC(=O)Nc2ccc(C#CC(C)(C)Oc3ccc(C(F)(F)F)cc3)cc2)cc1` 86.2

Now try `CCS(=O)(=O)c1ccc(CC(=O)Nc2ccc(OC3(c4ccc(F)cc4F)CCC3)c(F)c2)cc1` . 75.2

Now the same for `CCS(=O)(=O)c1ccc(CC(=O)Nc2ccc3c(c2)nc(C(C)(C)Oc2ccc(F)cc2F)n3CC(C)C)cc1` 84.5

Likewise for `CCS(=O)(=O)c1ccc(CC(=O)Nc2ccc(C#CC(C)(C)Oc3cc(F)c(F)cc3F)cc2)cc1` ? 78.8

Next up: `CCS(=O)(=O)c1ccc(CC(=O)Nc2ccc(C#CC(C)(C)Oc3ccc(F)cc3Cl)cc2)cc1` 75.7

Then what about the compound `CCS(=O)(=O)c1ccc(CC(=O)Nc2ccc(OC(C)(C)c3ccc(F)cc3F)cc2)cc1` ? 78

Lookup `CCN(C(=O)C(C)(C)Oc1ccc(F)cc1F)c1ccc(NC(=O)Cc2ccc(S(=O)(=O)CC)cc2)cc1` 60.9

Same thing, different compound: `CCS(=O)(=O)c1ccc(CC(=O)Nc2ccc(OC3(c4ccc(Cl)c(F)c4)CCNCC3)cc2)cc1` 55

Another compound to look at: `CCS(=O)(=O)c1ccc(CC(=O)Nc2cc(F)c(OC(C)(C)c3ncc(Cl)cc3Cl)c(F)c2)cc1` 47.6

Would you kindly repeat that for `CCS(=O)(=O)c1ccc(CC(=O)Nc2ccc(OC3(c4ccc(Cl)c(F)c4)COC3)cc2)cc1` ? 85.7

Next up: `CCS(=O)(=O)c1ccc(CC(=O)Nc2ccc3c(c2)nc(C(C)(C)Oc2ccc(Cl)cc2Cl)n3C)cc1` 90.2

Another compound: `CCS(=O)(=O)c1ccc(CC(=O)Nc2ccc(OC3(c4ccc(Cl)c(F)c4)CCCCC3)cc2)cc1` 84.8

What do you get for `CCn1c(C(C)(C)Oc2c(F)cc(F)cc2F)nc2cc(NC(=O)Cc3ccc(S(=O)(=O)CC)cc3)ccc21` ? 88.8

Another compound: `CCn1c(C(C)(C)Oc2cc(F)c(F)cc2F)nc2cc(NC(=O)Cc3ccc(S(=O)(=O)CC)cc3)ccc21` 93.1

How about this compound: `CCN(C(=O)C(C)(C)Oc1ccc(NC(=O)Cc2ccc(S(=O)(=O)CC)cc2)cc1F)c1ccc(Cl)c(F)c1` 72.9

// same read-out, input: `CCS(=O)(=O)c1ccc(CC(=O)Nc2ccc(OC(C)(C)c3nc4cc(F)ccc4n3C(C)C)cc2)cc1` 85.2

Now this one: `CCn1c(C(C)(C)Oc2ccc(NC(=O)Cc3ccc(S(=O)(=O)CC)cc3)cc2F)nc2cc(Cl)ccc21` 84.6

Another compound to check: `CCS(=O)(=O)c1ccc(CC(=O)Nc2ccc(OC3(c4ccc(Cl)cc4F)CC3)c(F)c2)cc1` 81.1
